src = the DeepSol protein solubility set

- method-description: soluble on expression in E. coli; label from the status in PepcDB or PDB records
measurement-label: soluble on expression in E. coli

{"columns": ["polymer-sequence", "measurement-label", "test-value"],
 "data": [
  ["MGSDKIHHHHHHMRVLHFYKTYLSETVGGIEQVIFQLCESSGSWGIDNHVLTLSSDPHPPVVPFGGHVVHRARLDLQLASTGFSLSVFKQFRELAAEADVVNYHFPWPFMDLVHFLTGMNKPSVVTYHSDIIRQRVLLKLYRPLMSRFLHSVDRIVAASPNYFSTSDVLRQYREKTRVITYGLDKDGYPKPATQRLEHWREKLGPRFFLFVGVMRYYKGLHILLDALQGTDYPVVIVGAGPLQAELYAQAAALGLRNVHFLGRVDDEDKVALLQLSYAMVFPSHLRSEAFGISLLEGAMYGKPMISSEIGTGTSYINIHGETGLVVPPSQPAAFRQAMRWLWEHPQQAEEMGRNAEARYRQLFTAEEMGRRWSELYRELLEEKASSRYVKAAR", "soluble on expression in E. coli", "not soluble"],
  ["MNITKIDWQKVNGLLPVIIQNISTREVLMLGYMNEEALTKTIKERKVTFFSRTKQRLWTKGEISGNFLNVEEMSLDCDNDTLLILVDPIGATCHTGEYSCFHQFTSPQSENKKQQFANWAWFIKLEQHLKEKKNADPSNSYTATLHAKGTKKIAQKVGEEGVETALAAVAQDKAEVISEATDLVYHLTVLLHNQDLQWYEIIAKLQERHQGIGLHPEGGNK", "soluble on expression in E. coli", "soluble"],
  ["MEDRIQKAVELFKSGYNCSQSVVAAFADMYGFTQEQAVRMSASFGGGIGRMRETCGAACGLFLIAGLETGATEATDREGKAANYAVVQELAAEFKKRNGSLICGELLGLKKKEPISTVPEERNTQYYSKRPCAKMVEEAARIWVEYLEKHPK", "soluble on expression in E. coli", "not soluble"],
  ["AHHHHHHASAKWVCKICGYIYDEDAGDPDNGISPGTKFEELPDDWVCPICGAPKSEFEKLEDGSEKVDRIIQMEIGRINSHLPKARKSLCELLKEDSPSIELRDGSLHYFRRSELEFLKTLAGEEACLVKLPIILELSTLDRGYFVVRGRGEVRVIKKLLELSEDIYLEENTVRLPRYYLPTIRRKLPTTTVYAFITEW", "soluble on expression in E. coli", "soluble"],
  ["MNSLDSQITALYTLAHELLYLGSDGSPIYSDHFSRLNGDVLSRANTLYPHHGSTDEEEARLCLSLLMGYNATIYNNGDKEVRIQQILNRCWEVLDRLPASLLKVRLLTYCYG", "soluble on expression in E. coli", "not soluble"]
]}

Now examine the next entry.
// recorded soluble on expression in E. coli for MGSHHHHHHDITSLYKKAGSAAAVLEENLYFQGSFTMLHEIPKSEILKELKRIGAKRVLIQSPEGLRREAEELAGFLEENNIEVFLHGEINYGACDPADREAKLVGCDALIHLGHSYMKLPLEVPTIFVPAFARVSVVEALKENIGEIKKLGRKIIVTTTAQHIHQLKEAKEFLESEGFEVSIGRGDSRISWPGQVLGCNYSVAKVRGEGILFIGSGIFHPLGLAVATRKKVLAIDPYTKAFSWIDPERFIRKRWAQIAKAMDAKKFGVIVSIKKGQLRLAEAKRIVKLLKKHGREARLIVMNDVNYHKLEGFPFEAYVVVACPRVPLDDYGAWRKPVLTPKEVEILLGLREEYEFDEILGGPRESDEPFGISIHSTR : soluble
